experiment: Pharmacokinetic evaluation after intravenous or gavage administration in dogs; assay type: in vivo, Beagle dogs; details: beagle, dog, plasma, iv, i.v group, 1 mg/kg
Listed compounds paired with reported AUC(0-t)
OUTCOME_MEASURE: AUC(0-t) (ng·h/mL)

compound="NC(=O)[C@@H]1C[C@H](F)CN1Cc1ccc(OCc2cccc(F)c2)cc1F [Example 3]" outcome_measure=AUC(0-t) quantitative_readout=977
compound="NC(=O)[C@@H]1C[C@H](F)CN1Cc1ccc(OCc2cccc(F)c2)cc1 [Example 1]" outcome_measure=AUC(0-t) quantitative_readout=1480

----------
experiment: Pharmacokinetic evaluation after intravenous or gavage administration in dogs; assay type: in vivo, Beagle dogs; conditions: beagle, dog, plasma, iv, i.v group, 1 mg/kg
Cmax listing for selected molecules.
OUTCOME_MEASURE: Cmax (ng/mL)

smiles_str=NC(=O)[C@@H]1C[C@H](F)CN1Cc1ccc(OCc2cccc(F)c2)cc1 outcome_measure=Cmax quantitative_readout=1230
smiles_str=NC(=O)[C@@H]1C[C@H](F)CN1Cc1ccc(OCc2cccc(F)c2)cc1F outcome_measure=Cmax quantitative_readout=1490

----------
experiment: Pharmacokinetic evaluation after intravenous or gavage administration in rats; assay type: in vivo, SD rats; conditions: SD, rat, plasma, iv, i.v group, 1 mg/kg
OUTCOME_MEASURE: MRT inf (min)

smiles_str=NC(=O)[C@@H]1C[C@H](F)CN1Cc1ccc(OCc2cccc(F)c2)cc1F outcome_measure="MRT inf" quantitative_readout=46.7
smiles_str=NC(=O)[C@@H]1C[C@H](F)CN1Cc1ccc(OCc2cccc(F)c2)cc1 outcome_measure="MRT inf" quantitative_readout=41.6
smiles_str=NC(=O)[C@@H]1C[C@@H](F)CN1Cc1ccc(OCc2cccc(F)c2)cc1 outcome_measure="MRT inf" quantitative_readout=40

----------
test: Pharmacokinetic evaluation after intravenous or gavage administration in dogs; type: in vivo, Beagle dogs; conditions: beagle, dog, plasma, iv, i.v group, 1 mg/kg
OUTCOME_MEASURE: clearance (mL/min/kg)

smiles_str=NC(=O)[C@@H]1C[C@H](F)CN1Cc1ccc(OCc2cccc(F)c2)cc1F measure_unit=mL/min/kg quantitative_readout=17
smiles_str=NC(=O)[C@@H]1C[C@H](F)CN1Cc1ccc(OCc2cccc(F)c2)cc1 measure_unit=mL/min/kg quantitative_readout=11.1

----------
assay: Pharmacokinetic evaluation after intravenous or gavage administration in dogs; format: in vivo, Beagle dogs; conditions: beagle, dog, plasma, iv, i.v group, 1 mg/kg
In this section we review reported MRT inf values for a set of compounds.
OUTCOME_MEASURE: MRT inf (h)

compound="NC(=O)[C@@H]1C[C@H](F)CN1Cc1ccc(OCc2cccc(F)c2)cc1 [Example 1]" outcome_measure="MRT inf" measure_unit=h quantitative_readout=2.77
compound="NC(=O)[C@@H]1C[C@H](F)CN1Cc1ccc(OCc2cccc(F)c2)cc1F [Example 3]" outcome_measure="MRT inf" measure_unit=h quantitative_readout=0.871

----------
assay: Pharmacokinetic evaluation after intravenous or gavage administration in dogs; format: in vivo, Beagle dogs; conditions: beagle, dog, plasma, iv, i.v group, 1 mg/kg
Below is a list of entries, each paired with its recorded Tmax value.
OUTCOME_MEASURE: Tmax

compound="NC(=O)[C@@H]1C[C@H](F)CN1Cc1ccc(OCc2cccc(F)c2)cc1F [Example 3]" result="4.98 min"
compound="NC(=O)[C@@H]1C[C@H](F)CN1Cc1ccc(OCc2cccc(F)c2)cc1 [Example 1]" result="4.98 min"

Cited source: patent US11225460B2
